Reported log10(EC50) values are given for each entry in this list.
Biological target: TYK2 (Homo sapiens (Human), UniProt P29597)
Sequence (P29597 871-1187): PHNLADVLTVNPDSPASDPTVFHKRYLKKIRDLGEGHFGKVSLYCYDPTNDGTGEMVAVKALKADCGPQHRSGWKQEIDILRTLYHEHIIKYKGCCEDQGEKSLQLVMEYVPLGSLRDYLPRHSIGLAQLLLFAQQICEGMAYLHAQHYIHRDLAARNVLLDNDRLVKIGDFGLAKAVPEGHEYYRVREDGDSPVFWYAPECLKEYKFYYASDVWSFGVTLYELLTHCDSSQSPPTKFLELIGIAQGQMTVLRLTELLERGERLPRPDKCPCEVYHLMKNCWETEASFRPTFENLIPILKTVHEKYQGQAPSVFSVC
Test: JAK kinase assay (HTRF), TYK2
Conditions: catalytic domain (aa 871-1187), GST-tag, ATP at Km (13 μM)
Lab note - EC50 converted to log10 from values in nM.

Worked examples follow.
> print(dat)
                                   compound  number
1  CC[C@]12CN(C#N)CC[C@H]1CCN(c1ncnc3[nH]ccc13)C2 (relative stereo) [Example 23]    1.04
2  CC[C@]12CN(C=O)CC[C@H]1CCN(c1ncnc3[nH]ccc13)C2 (relative stereo)    2.25
3  C[C@]12CN(c3ccc(C#N)nn3)C[C@H]1CCN(c1ncnc3[nH]ccc13)C2 (racemic)    2.76
4  Cc1cc(C#N)cnc1N1C[C@H]2CCN(c3ncnc4[nH]ccc34)C[C@@]2(C)C1 (racemic)    3.31
5  CC[C@@]12CN(c3ncnc4[nH]ccc34)CC[C@@H]1CCN(S(N)(=O)=O)C2 (relative stereo) [Example 17]    1.65
6  C[C@]12CN(c3cnc(C#N)cn3)CC[C@H]1CCN(c1ncnc3[nH]ccc13)C2 (racemic)    2.17

// fetch TYK2 (Homo sapiens (Human), UniProt P29597) log10(EC50) for C[C@]12CN(c3ccncn3)C[C@H]1CCN(c1ncnc3[nH]ccc13)C2 (racemic)
2.89

// fetch TYK2 (Homo sapiens (Human), UniProt P29597) log10(EC50) for C[C@@]12CN(c3ncnc4[nH]ccc34)CC[C@@H]1CCN(S(N)(=O)=O)C2 (racemic)
2.38

// fetch TYK2 (Homo sapiens (Human), UniProt P29597) log10(EC50) for CC[C@@]12CN(C#N)CC[C@@H]1CCN(c1ncnc3[nH]ccc13)C2
2.99

// fetch TYK2 (Homo sapiens (Human), UniProt P29597) log10(EC50) for C[C@]12CN(C(=O)C3(C#N)CCCC3)C[C@H]1CCN(c1ncnc3[nH]ccc13)C2 (racemic)
3.18

// fetch TYK2 (Homo sapiens (Human), UniProt P29597) log10(EC50) for C[C@]12CN(C(=O)CC#N)C[C@H]1CCN(c1ncnc3[nH]ccc13)C2 (racemic)
2.49

// fetch TYK2 (Homo sapiens (Human), UniProt P29597) log10(EC50) for C[C@]12CN(c3ccc(S(C)(=O)=O)cc3)C[C@H]1CCN(c1ncnc3[nH]ccc13)C2 (racemic)
2.53

// fetch TYK2 (Homo sapiens (Human), UniProt P29597) log10(EC50) for Cc1nc(N2CC[C@H]3CCN(c4ncnc5[nH]ccc45)C[C@@]3(C)C2)ccc1C#N (racemic)
3.59

// fetch TYK2 (Homo sapiens (Human), UniProt P29597) log10(EC50) for C[C@]12CN(c3ncccc3CO)C[C@H]1CCN(c1ncnc3[nH]ccc13)C2 (racemic)
3.05

// fetch TYK2 (Homo sapiens (Human), UniProt P29597) log10(EC50) for CC[C@]12CN(c3nc(C#N)cs3)CC[C@H]1CCN(c1ncnc3[nH]ccc13)C2 (relative stereo)
3.05
